What Dose proportionality test using power model, β was measured for each of the following?
assay: Dose proportionality (linearity) test by power model for C max and AUC0-last; conditions: AUC0-last; rikkunshito 2.5, 5.0 or 7.5 g
Numbers only.

O=C(/C=C/c1ccc(O)cc1)c1ccc(O)cc1O    1.27
CC1(C)[C@@H](O)CC[C@]2(C)[C@H]3C(=O)C=C4[C@@H]5C[C@@](C)(C(=O)O)CC[C@]5(C)CC[C@@]4(C)[C@]3(C)CC[C@@H]12    0.979
COc1ccc(-c2oc3c(OC)c(OC)c(OC)c(OC)c3c(=O)c2OC)cc1OC    0.804

For the next question, use this molecule.
Query string: Field request: Dose proportionality test using power model, β | item: C/C=C/C#CC#C/C=C/c1ccco1
Result string: 1.60
